test system: Escherichia coli TOP10; assay: shrunken log2 fold change of peptide-encoding DNA abundance (4.5 h post-induction vs induction); higher = less antimicrobial activity (less host growth inhibition); settings: time post-induction: 4.5 h; library: site-saturation at positions 5, 18, 19, 20
OBSERVED PROPERTY: shrunken log2 fold change
Please give the numeric answer without any surrounding text.

Sample answers from the record:
RRIRTRPPRLPRPRPRPGETPRP : -0.105
RRIRWRPPRLPRPRPRPLSQPRP : 0.0157
RRIRIRPPRLPRPRPRPPGTPRP : 0.029
RRIRPRPPRLPRPRPRPCSTPRP : -0.173
RRIRVRPPRLPRPRPRPLVAPRP : 0.196

Record request: shrunken log2 fold change value, item RRIRERPPRLPRPRPRPPNDPRP -0.462

And the next one, RRIRSRPPRLPRPRPRPCMVPRP ? -0.511

And the next one, RRIRDRPPRLPRPRPRPSVAPRP ? 0.233

* * *

Each record here notes measured shrunken log2 fold change.
test system: Escherichia coli TOP10; assay: shrunken log2 fold change of peptide-encoding DNA abundance (4.5 h post-induction vs induction); higher = less antimicrobial activity (less host growth inhibition); settings: time post-induction: 4.5 h; library: site-saturation at positions 5, 18, 19, 20
Please give the numeric answer without any surrounding text.

Record request: shrunken log2 fold change value, item RRIRVRPPRLPRPRPRPFYAPRP -0.357

* * *

test system: Escherichia coli TOP10; assay: shrunken log2 fold change of peptide-encoding DNA abundance (4.5 h post-induction vs induction); higher = less antimicrobial activity (less host growth inhibition); conditions: time post-induction: 4.5 h; library: site-saturation at positions 5, 18, 19, 20
OBSERVED PROPERTY: shrunken log2 fold change
Please give the numeric answer without any surrounding text.

RRIRTRPPRLPRPRPRPLPTPRP : 0.368
RRIRQRPPRLPRPRPRPSVFPRP : -0.143

Record request: shrunken log2 fold change value, item RRIRGRPPRLPRPRPRPYDWPRP 0.0669

And the next one, RRIRERPPRLPRPRPRPVCIPRP ? -0.541

* * *

Each record here notes measured shrunken log2 fold change.
test system: Escherichia coli TOP10; experiment: shrunken log2 fold change of peptide-encoding DNA abundance (4.5 h post-induction vs induction); higher = less antimicrobial activity (less host growth inhibition); settings: time post-induction: 4.5 h; library: site-saturation at positions 5, 18, 19, 20

RRIRQRPPRLPRPRPRPYWNPRP : -1.21
RRIRKRPPRLPRPRPRPKSKPRP : 0.45
RRIRMRPPRLPRPRPRPQMRPRP : 1
RRIRFRPPRLPRPRPRPWWHPRP : -0.334
RRIRYRPPRLPRPRPRPEKRPRP : 0.00709
RRIRARPPRLPRPRPRPSKSPRP : 0.0305
RRIRYRPPRLPRPRPRPESSPRP : -0.0327
RRIRVRPPRLPRPRPRPGGDPRP : 0.0318

Record request: shrunken log2 fold change value, item RRIRSRPPRLPRPRPRPNAWPRP -0.0228

And the next one, RRIRDRPPRLPRPRPRPTHPPRP ? 0.263

And the next one, RRIRARPPRLPRPRPRPGVHPRP ? 0.243

And the next one, RRIRKRPPRLPRPRPRPCEIPRP ? 0.128

And the next one, RRIRERPPRLPRPRPRPRRIPRP ? -0.00822

And the next one, RRIRFRPPRLPRPRPRPHGGPRP ? 0.0953

And the next one, RRIRYRPPRLPRPRPRPATMPRP ? -0.69

And the next one, RRIRQRPPRLPRPRPRPKMHPRP ? 0.127

* * *

tested on: Escherichia coli TOP10; test: shrunken log2 fold change of peptide-encoding DNA abundance (4.5 h post-induction vs induction); higher = less antimicrobial activity (less host growth inhibition); details: time post-induction: 4.5 h; library: site-saturation at positions 5, 18, 19, 20
Each record here notes measured shrunken log2 fold change.
Please give the numeric answer without any surrounding text.

Sample answers from the record:
RRIRWRPPRLPRPRPRPHSAPRP : -0.0726
RRIRSRPPRLPRPRPRPPNQPRP : 0.134
RRIRHRPPRLPRPRPRPPLLPRP : 0.152

Record request: shrunken log2 fold change value, item RRIRLRPPRLPRPRPRPHLEPRP 0.0765

And the next one, RRIRSRPPRLPRPRPRPKHMPRP ? 0.00683

And the next one, RRIRCRPPRLPRPRPRPTGEPRP ? 0.156

And the next one, RRIRNRPPRLPRPRPRPSEHPRP ? -0.159

And the next one, RRIRWRPPRLPRPRPRPYMYPRP ? -0.848

* * *

system: Escherichia coli TOP10; experiment: shrunken log2 fold change of peptide-encoding DNA abundance (4.5 h post-induction vs induction); higher = less antimicrobial activity (less host growth inhibition); settings: time post-induction: 4.5 h; library: site-saturation at positions 5, 18, 19, 20
Note to self: class labels come from recorded shrunken log2 fold change, ranges listed here: bucket 1 = under -0.1, bucket 2 = from -0.1 up to 0.07, bucket 3 = 0.07 and over

# count of solved cases: 5
RRIRPRPPRLPRPRPRPIFLPRP : bucket 3
RRIRARPPRLPRPRPRPDIYPRP : bucket 3
RRIRTRPPRLPRPRPRPQRNPRP : bucket 1
RRIRIRPPRLPRPRPRPTKMPRP : bucket 1
RRIRDRPPRLPRPRPRPSWFPRP : bucket 1

Which category does the recorded shrunken log2 fold change put RRIRKRPPRLPRPRPRPFHHPRP in? bucket 1

And the next one, RRIRQRPPRLPRPRPRPTNMPRP ? bucket 1

And the next one, RRIRYRPPRLPRPRPRPMWVPRP ? bucket 2

And the next one, RRIRLRPPRLPRPRPRPFEMPRP ? bucket 2

And the next one, RRIRMRPPRLPRPRPRPDYLPRP ? bucket 2

And the next one, RRIRFRPPRLPRPRPRPFSVPRP ? bucket 1

And the next one, RRIRLRPPRLPRPRPRPPLQPRP ? bucket 3

And the next one, RRIRSRPPRLPRPRPRPRTKPRP ? bucket 3

And the next one, RRIRKRPPRLPRPRPRPCHKPRP ? bucket 2

And the next one, RRIRMRPPRLPRPRPRPQQFPRP ? bucket 3

And the next one, RRIRIRPPRLPRPRPRPYNAPRP ? bucket 1

* * *

Each record here notes measured shrunken log2 fold change.
system: Escherichia coli TOP10; assay: shrunken log2 fold change of peptide-encoding DNA abundance (4.5 h post-induction vs induction); higher = less antimicrobial activity (less host growth inhibition); settings: time post-induction: 4.5 h; library: site-saturation at positions 5, 18, 19, 20
Please give the numeric answer without any surrounding text.

Sample answers from the record:
RRIRKRPPRLPRPRPRPNYLPRP : -0.0798
RRIRQRPPRLPRPRPRPMIQPRP : 0.0718
RRIRKRPPRLPRPRPRPNLNPRP : -0.356
RRIRRRPPRLPRPRPRPGEFPRP : -0.0272
RRIRLRPPRLPRPRPRPESRPRP : 0.0418
RRIRTRPPRLPRPRPRPGREPRP : 0.0772

Record request: shrunken log2 fold change value, item RRIRTRPPRLPRPRPRPPMGPRP 0.271

And the next one, RRIRSRPPRLPRPRPRPSSFPRP ? -0.356

* * *

Each record here notes measured shrunken log2 fold change.
system: Escherichia coli TOP10; test: shrunken log2 fold change of peptide-encoding DNA abundance (4.5 h post-induction vs induction); higher = less antimicrobial activity (less host growth inhibition); conditions: time post-induction: 4.5 h; library: site-saturation at positions 5, 18, 19, 20
Please give the numeric answer without any surrounding text.

Sample answers from the record:
RRIRIRPPRLPRPRPRPPGPPRP : 0.575
RRIRMRPPRLPRPRPRPKGNPRP : 0.0272
RRIRARPPRLPRPRPRPHIIPRP : -0.0334
RRIRHRPPRLPRPRPRPYWNPRP : -0.98
RRIRQRPPRLPRPRPRPVVDPRP : -0.355
RRIRGRPPRLPRPRPRPARIPRP : 0.208
RRIRARPPRLPRPRPRPNEEPRP : 0.276
RRIRHRPPRLPRPRPRPMRAPRP : 0.686

Record request: shrunken log2 fold change value, item RRIRQRPPRLPRPRPRPSEIPRP -0.0356

And the next one, RRIRYRPPRLPRPRPRPERTPRP ? 0.0654

And the next one, RRIRSRPPRLPRPRPRPCEGPRP ? -0.00992

* * *

test system: Escherichia coli TOP10; test: shrunken log2 fold change of peptide-encoding DNA abundance (4.5 h post-induction vs induction); higher = less antimicrobial activity (less host growth inhibition); conditions: time post-induction: 4.5 h; library: site-saturation at positions 5, 18, 19, 20;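 also: peptides expressed intracellularly from a pBAD plasmid library in pooled LB shake-flask culture, induced with 0.3% L-arabinose, DNA abundance read by NGS, three biological replicates, DESeq2 with apeglm shrinkage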
Note to self: class labels come from recorded shrunken log2 fold change, ranges listed here: band 1: < -0.05; band 2: ≥ -0.05 and < 0.1; band 3: ≥ 0.1

RRIRIRPPRLPRPRPRPALMPRP : band 2
RRIRRRPPRLPRPRPRPFEPPRP : band 3

Which category does the recorded shrunken log2 fold change put RRIRGRPPRLPRPRPRPDMCPRP in? band 3

And the next one, RRIRRRPPRLPRPRPRPRLIPRP ? band 3

And the next one, RRIRMRPPRLPRPRPRPDCWPRP ? band 3

And the next one, RRIRMRPPRLPRPRPRPWGVPRP ? band 3

And the next one, RRIRGRPPRLPRPRPRPPMKPRP ? band 3

And the next one, RRIRTRPPRLPRPRPRPKVWPRP ? band 3

And the next one, RRIRERPPRLPRPRPRPCYKPRP ? band 1

And the next one, RRIRVRPPRLPRPRPRPHWGPRP ? band 2

Reference source for all entries: the supplement of paper PMC9112550
